experiment: Hemolytic activity in Swiss mouse erythrocytes at 50 ug/mL after 1 hr by spectrophotometric analysis relative to control; format: ADME, cell-based, Erythrocyte; settings: read-out: Activity
experimental readout: hemolysis at 1 h, 50 ug/mL (%)
Value expressed in %; do not type the unit.

O=C1C2=C(OC3(C=CC=C3)C2)C(=O)c2ccccc21: 5.92
Cc1ccc(C2CC3=C(O2)C(=O)c2ccccc2C3=O)c(C)c1 (stereo unspecified): -0.217
O=C1C2=C(OC(c3ccccc3)C2)C(=O)c2ccccc21 (stereo unspecified): -1.44
O=C1C(=O)c2ccccc2C2=C1CC1(C=CC=C1)O2: -1.63
O=C1C(=O)c2ccccc2C2=C1CC(c1ccccc1)O2 (stereo unspecified): 1.98

With those in mind, consider the next compound.
Can you share its hemolysis at 1 h, 50 ug/mL? I mean this compound: CC1(C)CC2=C(O1)c1ccccc1C(=O)C2=O [NOR-BETA-LAPACHONE] -2.4
